Assign IC50 to each entry below.
system: 922993-354-T-J3-PDC complex spheroids, viability, % test/control; assay: Anticancer human tumor 922993-354-T-J3-PDC patient-derived endometrial carcinoma cell line growth inhibition [CLK]; conditions: curve of first compound; second compound 0.0316 µM

Nc1ccn(C2OC(CO)C(O)C2(F)F)c(=O)n1 (stereo not given) + CNC(=O)c1ccc(Nc2nc(OC3CCCC3)c3c(-c4ccc5nc(C)oc5c4)c[nH]c3n2)c(OC)c1 = < 31.6 nM
CC(Nc1ccc2c(c1)OCCn1cc(N3C(=O)OCC3C(F)F)nc1-2)C(N)=O (stereo not given) + CN1CCN(c2cc(C(=O)Nc3cc4cc(-c5cnn(C)c5)ccc4cn3)ccn2)CC1 = 2730 nM
CC(C)CC(NC(=O)C(Cc1ccccc1)NC(=O)c1cnccn1)B(O)O (stereo not given) + CNC(=O)c1ccc(Nc2nc(OC3CCCC3)c3c(-c4ccc5nc(C)oc5c4)c[nH]c3n2)c(OC)c1 = 10.3 nM
CC(CO)NC(=O)c1cc(-c2ccc(Cl)cc2)nn(-c2cnn(C)c2)c1=O (stereo not given) + CNC(=O)c1ccc(Nc2nc(OC3CCCC3)c3c(-c4ccc5nc(C)oc5c4)c[nH]c3n2)c(OC)c1 = > 10000 nM

Continue with the next compound.
// returns IC50 for COC1C=CCC(C)C(C)S(=O)(=O)NC(=O)c2ccc3c(c2)N(CC2CCC21)CC1(CCCc2cc(Cl)ccc21)CO3 (stereo not given) + CNC(=O)c1ccc(Nc2nc(OC3CCCC3)c3c(-c4ccc5nc(C)oc5c4)c[nH]c3n2)c(OC)c1 with 922993-354-T-J3-PDC complex spheroids, viability, % test/control; value = 6370 nM

* * *

Assign IC50 to each entry below.
tested on: 922993-354-T-J3-PDC complex spheroids, viability, % test/control; test: Anticancer human tumor 922993-354-T-J3-PDC cell line growth inhibition [CLK]; conditions: curve of first compound; second compound 0.1 µM;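 further: spheroids exposed to the agents for 7 days before readout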
Give bare numbers, in µM.

I'm hoping you can list IC50 for every molecule here, please.
1. NC(=O)C(=Cn1cnc(-c2cc(C(F)(F)F)cc(C(F)(F)F)c2)n1)c1cncnc1 + CNC(=O)c1ccc(Nc2nc(OC3CCCC3)c3c(-c4ccc5nc(C)oc5c4)c[nH]c3n2)c(OC)c1
2. COC1C=CCC(C)C(C)S(=O)(=O)NC(=O)c2ccc3c(c2)N(CC2CCC21)CC1(CCCc2cc(Cl)ccc21)CO3 (stereo not given) + CNC(=O)c1ccc(Nc2nc(OC3CCCC3)c3c(-c4ccc5nc(C)oc5c4)c[nH]c3n2)c(OC)c1
3. Nc1ccccc1NC(=O)c1ccc(CNC(=O)OCc2cccnc2)cc1 + CNC(=O)c1ccc(Nc2nc(OC3CCCC3)c3c(-c4ccc5nc(C)oc5c4)c[nH]c3n2)c(OC)c1

**A:**
[0.467, 6.79, 6.25]

* * *

Assign IC50 to each entry below.
system: 922993-354-T-J3-PDC complex spheroids, viability, % test/control; test: Anticancer human tumor 922993-354-T-J3-PDC cell line growth inhibition [CLK]; conditions: curve of first compound; second compound 0.1 µM;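 further: spheroids exposed to the agents for 7 days before readout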

I'm hoping you can list IC50 for every compound here, please.
1. CC(=O)O[C@H]1C(=O)[C@@]2(C)[C@H]([C@H](OC(=O)c3ccccc3)[C@]3(O)C[C@H](OC(=O)[C@H](O)[C@@H](NC(=O)c4ccccc4)c4ccccc4)C(C)=C1C3(C)C)[C@]1(OC(C)=O)CO[C@@H]1C[C@@H]2O + CNC(=O)c1ccc(Nc2nc(OC3CCCC3)c3c(-c4ccc5nc(C)oc5c4)c[nH]c3n2)c(OC)c1
2. C=CC(=O)Nc1cc(Nc2nccc(-c3cn(C)c4ccccc34)n2)c(OC)cc1N(C)CCN(C)C + CNC(=O)c1ccc(Nc2nc(OC3CCCC3)c3c(-c4ccc5nc(C)oc5c4)c[nH]c3n2)c(OC)c1
3. C=CC(=O)N1CCN(c2nc(=O)n(-c3c(C)ccnc3C(C)C)c3nc(-c4c(O)cccc4F)c(F)cc23)C(C)C1 (centres undefined) + CNC(=O)c1ccc(Nc2nc(OC3CCCC3)c3c(-c4ccc5nc(C)oc5c4)c[nH]c3n2)c(OC)c1
4. CCN1CCN(Cc2ccc(Nc3ncc(F)c(-c4cc(F)c5nc(C)n(C(C)C)c5c4)n3)nc2)CC1 + CN1CCN(c2cc(C(=O)Nc3cc4cc(-c5cnn(C)c5)ccc4cn3)ccn2)CC1

**A:**
1. > 10 µM
2. > 0.3 µM
3. > 10 µM
4. > 1 µM

Origin of the recorded values: PubChem BioAssay AID2060606
